Test system: K4 kissing-loop RNA reporter;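 note: bound reporter read as fluorescence of individual clusters on recovered sequencing chips by microscopy, with normalized cluster intensities fitted with a binding model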
Method notes: apparent KD of K4 kissing-loop reporter; higher = weaker reporter binding
Test settings: Eterna round: R107; input ligand: tryptophan 2.4 mM
The entries below are paired with their reported apparent KD of K4 kissing-loop reporter.
Give the quantity in nM, number only.

Here is how some sequences turned out for apparent KD of K4 kissing-loop reporter.
{"columns": ["Input sequence", "Measured on", "apparent KD of K4 kissing-loop reporter / nM"],
 "data": [
  ["GCUCAGGAGUGAUGUUCCAAGUGAUGUUAACGAGGACCGGUACGGCCGCCACUCGAUACGGCCGGACCGUAAGAUAAACUAGAGC [Same State - Tryptophan A (Freestyle 8)]", "K4 kissing-loop RNA reporter", 199],
  ["UUAGUACAUAGAGAUACCAGCCAUCGAAGUGAUGUUUCGAGAAAUAAUGAUGUUGGUAUAGGCCCUUGGCAGCUCUAUGUACAUU [AK1 Exc Theophylline B]", "K4 kissing-loop RNA reporter", 97.4],
  ["GGGAGGAACUGAGGAUAUUCGAAGAAAUAUAGUGAUGUUAUGUAAGGAGGAGGAGGGAGGGAGGAAGGAGAAGGCAGAAGAGGAG [ExFMNB.A]", "K4 kissing-loop RNA reporter", 433],
  ["GUAGGCUACCGAGGAUAUAGUCCAACGGAGUGAUGUUCCGUCUUUCUUCAUCAUUAACGUUGUGAUCUAGAAGGCGGUAGCCUAC", "K4 kissing-loop RNA reporter", 687],
  ["GGCAGUGAUGUUGCCAGUGGCAGAUGCGAAGGAGCGCAGUGAGAUGCAGGUAGGUCGCGCAUUGAAAUUGCUGUCACUAAAAUGC [#2]", "K4 kissing-loop RNA reporter", 234],
  ["GCCAGUGAUGUUGGCGAACCGACGCAUGCAGAGGAUAUUCGAUCUUGAAGAAGGCUGCAGCGUCAUCAUACGCAGUGAUGUUGCG [Same State FMN A GF 27]", "K4 kissing-loop RNA reporter", 139],
  ["CGUUUAUAGCAGGAUACCAGUGCGGAUAAGGUGCGUUAAUAGUAGAGUGAUGUUCUAAAGUACCCUUGGCAGCUUAGAGUGAGUG [#21 K4 Theophylline B Exclusion]", "K4 kissing-loop RNA reporter", 108],
  ["AACGCUGUGAAUAACACAGCGAAUAAUUCGCGAGGACCGGUACGGCCGCCACUCGCUAACUGCGAGUGAUGUUCGAUAAUAAAAU [Mat - Mod of OpenEnded 3 - D12]", "K4 kissing-loop RNA reporter", 113]
]}

As a next step, examine the sequence that follows.
So, UCGAACGAUGGAAGGAGCGCUCGUCAGCCCUGCGAGUGAUGUUCGUGGGUAAAUAGUCGCGAGCAGGUAGGUCGCCAUCUUGAGC [Zainsotima] ? Its apparent KD of K4 kissing-loop reporter was 124

---

System: MS2 coat protein
Method notes: apparent KD of MS2 coat protein; designed switch direction (-1 OFF switch, 1 ON switch): -1; higher = weaker reporter binding
Test settings: Eterna round: R95; input ligand: FMN 200 uM
The entries below are paired with their reported apparent KD of MS2 coat protein.
Give the quantity in nM, number only.

{"columns": ["Input sequence", "apparent KD of MS2 coat protein / nM"],
 "data": [
  ["AAGAAACAUGAGGAUCACCCAUGUGAGGAUAUGUAAAAGAAAAGAAAAGAAAGAAGAAACAGAAGGCACAAAGG [Mat - Mod of Hog D12] (puzzle: Exclusion 1)", 82],
  ["AUAUUAACAUAGGAUAUCGAAUUUAUCAUUUAACGAGAAGGAUGAACAUGAGGAUCACCCAUGUGGUAUCAUGG [Mat - Exclusion 6 - JL Mod - D1] (puzzle: Exclusion 6)", 171],
  ["UUAUACGGUGAGGAUAUCUUCACUAAAGUGUGAAGAGAAGGCGCUACAUGAGGAUCACCCAUGUCUAUGGGCAG [Ex-6 Malc#17] (puzzle: Exclusion 6)", 118]
]}

So, UUUUUCGAACAAGCUUCGUACAUGAGGAUCACCCAUGUUUUUAGAUUUGAGUAGGUUUGUAUGGAAGUUCGUCUUAU [JR_SV3TOV1_Sub087] (puzzle: Sensor v3, turn-off variant 1) ? Its apparent KD of MS2 coat protein was 32.3

So, AGGGAACGAGGAUAUCGAUGGUGGAACAUGAGGAUCACCCAUGUAUGAGAUAGAGUAGGGCGAGAAGGCGUUAAGA [JR_E5_Sub051] (puzzle: Exclusion 5) ? Its apparent KD of MS2 coat protein was 47.6
